Origin of the recorded values: ChEMBL document CHEMBL4619802

# studySystem: HTH-type quorum-sensing regulator RhlR (Pseudomonas aeruginosa (strain ATCC 15692 / PAO1 / 1C / PRS 101 / LMG12228))
# testProtocol: Antagonist activity at RhlR in Pseudomonas aeruginosa assessed as rhamnolipid production at 100 uM incubated for 24 hrs by Orcinol staining based assay relative to control
# Design: scale not given: the % may be the effect or the level left
endpoint: Activity (%)

Consider the following illustrative entries.
CCCCCC(=O)/C=C/c1ccc(F)c(F)c1    62
CCCC(O)CC(=O)/C=C/c1ccc(O)c(OC)c1 (stereo unspecified)    57
CCCC(=O)NC1CCCC1    45
CCCC(O)CC(=O)/C=C/c1ccc(O)c(O)c1 (stereo unspecified)    50
CCC[C@@H](O)C#Cc1ccc(F)c(F)c1    48

(P) CCCCCC(=O)C#Cc1ccc(F)c(F)c1
(Q) CCCC(O)CC(=O)/C=C/c1cccc(OC)c1 (stereo unspecified)
Please let me know which one, P or Q , has a lower measured Activity value. Kindly state the label of the option you pick.
P

---

# studySystem: HTH-type quorum-sensing regulator RhlR (Pseudomonas aeruginosa (strain ATCC 15692 / PAO1 / 1C / PRS 101 / LMG12228)) (UniProt P54292)
# Sequence (whole entry): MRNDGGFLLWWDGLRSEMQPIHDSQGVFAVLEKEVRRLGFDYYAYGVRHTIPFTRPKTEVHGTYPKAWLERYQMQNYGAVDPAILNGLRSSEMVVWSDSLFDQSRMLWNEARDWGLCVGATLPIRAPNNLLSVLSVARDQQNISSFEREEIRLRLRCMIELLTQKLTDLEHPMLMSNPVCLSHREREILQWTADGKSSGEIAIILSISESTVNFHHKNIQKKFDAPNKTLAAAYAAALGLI
# testProtocol: Modulation of RhlR in Pseudomonas aeruginosa assessed as biofilm formation at 10 uM incubated for 24 hrs under static condition by crystal violet staining based assay relative to control
Calls of active or inactive are those of the source. The rule behind the calls is not given here.
endpoint: Activity

CCCCCC(=O)C#Cc1ccc(F)c(F)c1    71%
CCC[C@H](O)C#Cc1ccc(F)c(F)c1    79%
CCCC(=O)NC1CCCC1    84%
CCCCCC(O)C#Cc1ccc(O)c(OC)c1 (racemic)    Active
CCCCC(=O)C#Cc1ccc(F)c(F)c1    75%
CCCCCC(=O)/C=C/c1ccc(F)c(F)c1    80%
CCCCC[C@H](O)C#Cc1ccc(O)c(OC)c1    Active
CCCCC[C@@H](O)C#Cc1ccc(O)c(OC)c1    Active
CCCC(O)C#Cc1ccc(F)c(F)c1 (racemic)    73%
CCCCCCCCCC(O)CC(=O)CCc1ccc(O)c(OC)c1 (centres undefined)    Active

# query: Activity of entry CCCC(O)CC(=O)/C=C/c1ccc(F)c(F)c1 (centres undefined)
72%

Same read-out for CCCCCC(=O)C#Cc1ccc(O)c(OC)c1 ?
Active

Then this compound: CCCC(O)CC(=O)/C=C/c1ccc(OC)cc1 (centres undefined)
Active

---

# studySystem: HTH-type quorum-sensing regulator RhlR (Pseudomonas aeruginosa (strain ATCC 15692 / PAO1 / 1C / PRS 101 / LMG12228)) (UniProt P54292)
# testProtocol: Agonist activity at Pseudomonas aeruginosa RhlR expressed in Escherichia coli DH5alpha assessed as relative protein activity at 100 uM incubated for 1.5 hrs by luminescence reporter gene assay relative to control
endpoint: Activity (%)

Solved entries (count: 2):
CCCCCCC(O)CC(=O)CCc1ccc(O)c(OC)c1 (stereo unspecified)    3
CCCC(O)CC(=O)/C=C/c1ccc(Cl)cc1 (stereo unspecified)    1

(1) CCCCCC(=O)C#Cc1ccc(F)c(F)c1
(2) CCCC(O)CC(=O)/C=C/c1ccc(C)cc1 (stereo unspecified)
Pick one: 1 or 2 . Which one has the lower reported Activity? Could you answer with the label of the item you picked?
2
(2: 2%, 1: 3%)
